The reported numbers originate from paper PMC9596378.

Target: CypB (Homo sapiens, UniProt P23284)
Construct: PPIB (UniProtKB Entry P23284: residues 34–216); His6 with TEV site (2BT vector leader) (N); made in house; host or cells: E. coli BL21(DE3)
Sequence (P23284 34-216): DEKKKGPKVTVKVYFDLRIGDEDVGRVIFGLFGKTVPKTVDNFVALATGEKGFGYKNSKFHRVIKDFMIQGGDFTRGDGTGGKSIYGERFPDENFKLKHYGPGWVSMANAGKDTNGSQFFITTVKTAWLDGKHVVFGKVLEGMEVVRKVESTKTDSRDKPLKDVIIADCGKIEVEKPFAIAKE
Assay: biochemical
Conditions: prolyl-isomerase inhibition, 5 nM cyclophilin; read-out: IC50 CypB
readout.name: pIC50
Expect pIC50 as a plain number equal to -log10 of the molar concentration.

compound="NCCOCCNC(=O)[C@@H]1CCNC(=O)/C=C/C(=O)N2CCC[C@](Cc3ccccc3)(C2)C(=O)N[C@@H](Cc2ccc(-c3ccc(CCC(=O)O)cc3)cc2)C(=O)NCc2ccccc2CC(=O)N1 [Compound B23]" system_under_test="CypB (Homo sapiens, UniProt P23284)" readout_name=pIC50 observed_value=7.66
compound="NCCOCCNC(=O)[C@@H]1CCNC(=O)/C=C/C(=O)N2CCC[C@](Cc3ccccc3)(C2)C(=O)N[C@@H](Cc2ccc(-c3ccc(C(CC(=O)O)CC(=O)O)cc3)cc2)C(=O)NCc2ccccc2CC(=O)N1 [Compound B53]" system_under_test="CypB (Homo sapiens, UniProt P23284)" readout_name=pIC50 observed_value=5.96
compound="NCCOCCNC(=O)[C@@H]1CCNC(=O)/C=C/C(=O)N2CCC[C@](Cc3ccccc3)(C2)C(=O)N[C@@H](Cc2ccc(-c3ccc(C#CC(=O)O)cc3)cc2)C(=O)NCc2ccccc2CC(=O)N1 [Compound B25]" system_under_test="CypB (Homo sapiens, UniProt P23284)" readout_name=pIC50 observed_value=7.96

We now examine a further compound.
Prompt line: Using known records, supply pIC50 for NCCOCCNC(=O)[C@@H]1CCNC(=O)/C=C/C(=O)N2CCC[C@](Cc3ccccc3)(C2)C(=O)N[C@@H](Cc2ccc(-c3ccc(CC(C(=O)O)C(=O)O)cc3)cc2)C(=O)NCc2ccccc2CC(=O)N1 [Compound B52]
Response line: 6.68
